- Tested on: KRAS-mutant PDC tumor spheroid with HUVEC/MSC, viability;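 note: spheroids exposed to agents for seven days before reading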
- procedure-summary: Anticancer human tumor 327498-153-R-J2-PDC patient-derived uterine carcinosarcoma cell line growth inhibition [KRAS2]
- cond: curve of first compound; second compound 0.316 µM
test-readout: log10(IC50) (log10 of the value in nM)

{"molecule": "CC(C)n1nc(-c2ccc3oc(N)nc3c2)c2c(N)ncnc21 + CNCc1ccccc1-c1csc(C(C)Nc2nc(C)nc3cc(OC)c(OC)cc23)c1", "quantitative-readout": 0.62}
{"molecule": "Cn1nccc1Nc1nccc(-c2cc3c(s2)C(C)(C)N(CCN2CCOCC2)C3=O)n1 + CNCc1ccccc1-c1csc(C(C)Nc2nc(C)nc3cc(OC)c(OC)cc23)c1", "quantitative-readout": 3.07}
{"molecule": "CCNC(=O)CC1N=C(c2ccc(Cl)cc2)c2cc(OC)ccc2-n2c(C)nnc21 (stereo unspecified) + C=CC(=O)N1CCN(c2nc(=O)n(-c3c(C)ccnc3C(C)C)c3nc(-c4c(O)cccc4F)c(F)cc23)C(C)C1", "quantitative-readout": 2.01}
{"molecule": "O=C(c1cc(Cc2n[nH]c(=O)c3ccccc23)ccc1F)N1CCN(C(=O)C2CC2)CC1 + C=CC(=O)N1CCN(c2nc(OCC3CCCN3C)nc3c2CCN(c2cccc4cccc(C)c24)C3)CC1CC#N", "quantitative-readout": 2.69}
{"molecule": "COc1cc2nccc(Oc3ccc(NC(=O)C4(C(=O)Nc5ccc(F)cc5)CC4)cc3)c2cc1OC + CC1OCC2(CCN(c3cnc(Sc4ccnc(N)c4Cl)c(N)n3)CC2)C1N", "quantitative-readout": 2.82}
